System: FRK
SETUP CONDITIONS: concentration: 1 μM, replicates: in singlicate; n = 1;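 note: KINOMEscan kinase panel screen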
The compounds listed here are annotated with their %Inh.
MEASURED QUANTITY: %Inh (%)

> print(dat)
                                   compound  reported
1  O=C(Nc1n[nH]c2cc(-c3cccc(F)c3)ccc12)C1CC1         6
2  C[C@@H](Oc1cc(-n2cnc3ccc(NC(=O)NC(C)(C)C)cc32)sc1C(N)=O)c1ccccc1Cl        10
3      CSc1ccc(-c2cc3ncnc(SCC(=O)O)c3s2)cc1        16
4  NS(=O)(=O)CCc1cccc(Nc2nccc(-c3c(-c4cccc(NC(=O)c5c(F)cccc5F)c4)nn4ccccc34)n2)c1      97.2
5  CCc1ccnc(/C=C/c2n[nH]c3cc(Sc4ccccc4C(=O)NC)ccc23)c1        17
6  Cc1nnc(-c2ccc3ncc(-c4ccc(S(C)=O)cc4)n3c2)o1 (stereo not shown)        29
7  COC(=O)Nc1nc2cc(Oc3ccc(NC(=O)Nc4cc(F)ccc4F)cc3)ccc2[nH]1.Cl        20

---

Test system: TNNI3K
SETUP CONDITIONS: concentration: 1 μM, replicates: in singlicate; n = 1
Each record is given True if its reported %Inh is strictly below 2%. Records at or above 2% are given False.

> print(dat)
                                    compound  answer.label
 1  CCc1ccnc(/C=C/c2n[nH]c3cc(Sc4ccccc4C(=O)NC)ccc23)c1         False
 2  O=C(Nc1n[nH]c2cc(-c3cccc(F)c3)ccc12)C1CC1          True
 3  COc1ccc(CNC(=O)NC2CCN(c3ccnc(Nc4ccc(OC)cc4)n3)C2)cc1 (centres unmarked)          True
 4  [2H]C([2H])(c1cccc(C(F)(F)F)c1C)n1ccn2c(=O)nc(N3CCOCC3)cc12          True
 5  COc1cc2c(cc1OC[C@@H](O)CO)ncc1c3ccc(C#N)cc3[nH]c21          True
 6  Cc1nnc(-c2ccc(C)c(-c3ccc(C(=O)Nc4ccc(NS(C)(=O)=O)cc4)cc3)c2)o1          True
 7  NS(=O)(=O)CCc1cccc(Nc2nccc(-c3c(-c4cccc(NC(=O)c5c(F)cccc5F)c4)nn4ccccc34)n2)c1         False
 8  Cc1nnc(-c2ccc3occ(-c4ccc(C(C)O)cc4)c3c2)o1 (centres unmarked)         False
 9  Cl.Oc1cccc(Nc2ccnc3cc(-c4ccncc4)ccc23)c1         False
10  O=C(NCCCN1CCOCC1)c1cccc(Nc2nccc(Nc3ccc(Oc4ccccc4)cc3)n2)c1         False

---

The molecules listed here are annotated with their %Inh.
System: p38-alpha
Construct: gene MAPK14
SETUP CONDITIONS: concentration: 1 μM, replicates: in singlicate; n = 1
MEASURED QUANTITY: %Inh (%)

> print(dat)
                            smiles.notation  reported
1  Cc1cccc(-c2nc(Nc3ccc4ncsc4c3)c3ccccc3n2)n1         0
2                  CC(C)(C)n1cnc2c(N)ncnc21         0
3  O=C(Nc1n[nH]c2cc(-c3cccc(F)c3)ccc12)C1CC1         1
